Tested on: human colorectal carcinoma HCT-116 cells
MEASUREMENT PROTOCOL: Cell survival index (MTT + cell count) bioscreen, HCT-116
Type: cell-based
CONDITION SET: HCT-116, 48 h, human colon cancer cell line, 48 h of incubation, mean ± SEM (n = 30)
OBSERVABLE: IC50 (µM)
Supply the numeric figure in µM, leaving out any unit text.

Given Cc1c(C(=O)c2ccccc2)cc(C(=O)NCc2cccc(C(F)(F)F)c2)n1Cc1ccccc1 [compound 9f] , state its recorded IC50.
28.4

Consider the compound shown here: Cc1c(C(=O)c2ccccc2)cc(C(=O)NCc2cccc(Cl)c2)n1Cc1ccc(F)cc1 [compound 9c] What is its recorded IC50?
55.9

Fill in the blank: the reported IC50 of Cc1ccc(Cn2c(C(=O)NCc3cccc(Cl)c3)cc(C(=O)c3ccccc3)c2C)cc1 [compound 1] is ____.
41.4

Reported IC50, compound CC(=O)c1cc(C(=O)NCc2cccc(Br)c2)n(Cc2ccc(C)cc2)c1-c1ccccc1 [compound 9g] : ____
34

What IC50 value was documented for this compound, Cc1c(C(=O)c2ccccc2)cc(C(=O)NCc2ccc(Cl)cc2)n1Cc1ccc(Cl)cc1 [compound 9e] ?
34.6

Can you share its IC50? I mean this compound: COc1ccc(Cn2c(C(=O)NCc3cccc(Cl)c3)cc(C(=O)c3ccccc3)c2C)cc1 [compound 9b]
46

IC50 for Cc1ccc(Cn2c(C(=O)NCc3cccc(Cl)c3)cc(C(=O)c3ccc(C)cc3)c2C)cc1 [compound 9h] ?
56.3

Record request: IC50 value, item COc1ccc(C2=N[C@H](c3ccc(Cl)cc3)[C@H](c3ccc(Cl)cc3)N2C(=O)N2CCNC(=O)C2)c(OC(C)C)c1 [nutlin-3a, reference compound]
12.5
